Could you please report measured abundance fitness for the items listed next?
B1: Ankyrin-2, residues 3571 to 3650; numbered along this chain, Q01484 (parent)
chain: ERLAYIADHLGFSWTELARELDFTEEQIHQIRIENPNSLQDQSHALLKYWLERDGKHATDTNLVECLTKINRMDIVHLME

# Variants of: B1
# assay_comment: abundance fitness (aPCA) (normalised: wild type 0, dead -1); higher = more abundant; growth selection in yeast, the domain comes from the species named
# condition_label: Homo sapiens
No unit in the answer, please; the number alone is enough.

In: Report abundance fitness for P36W please.
Out: -0.074

In: Which abundance fitness value belongs to P36R ?
Out: -0.076

In: Endpoint output: abundance fitness of R2W . Value?
Out: 0.056

In: Could you share which abundance fitness value was measured for K48W ?
Out: -0.171

In: Entry under review: L3E . Reported abundance fitness?
Out: -0.289

In: Returns the measured abundance fitness for the input variant. Input: L46T
Out: -0.127

In: Give its abundance fitness value. Item: D22H
Out: -0.017

In: Find the recorded abundance fitness belonging to P36T and report it.
Out: -0.052

In: Looking for the measured abundance fitness of D22W , can you help?
Out: -0.223

In: Given the entry T15S , report its measured abundance fitness.
Out: 0.018

In: What measured abundance fitness goes with S13W ?
Out: -0.17

In: Would you mind telling me what abundance fitness value was observed for N37Y ?
Out: -0.171

In: Which abundance fitness is reported for this variant? Q30G
Out: -0.079

In: # input variant: H44V ; wanted: its abundance fitness
Out: 0.085

In: Report abundance fitness for G11R please.
Out: -0.074

In: # input variant: R19I ; wanted: its abundance fitness
Out: 0.049

In: # get_value(readout='abundance fitness', item= Q30M )
Out: 0.008

In: Requested read-out: abundance fitness. Entry: E20Y
Out: -0.1

In: Give its abundance fitness value. Item: F23Q
Out: -0.912

In: Requested read-out: abundance fitness. Entry: L51I
Out: -0.015

In: So what does the record say about abundance fitness for E20V ?
Out: -0.003

In: Need abundance fitness of L51N , thanks.
Out: -0.123
